Recorded values, source the supplement of paper PMC10567573.

Exercise: state measured protein stability index for each of the variants provided.
B1: MATN2 (parent)
chain: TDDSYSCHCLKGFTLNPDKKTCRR

- Variants of: B1
- test_name: protein stability index of a GFP-peptide fusion (GPS, HEK-293T) (PSI 1-6); higher = more stable;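 note: lentivirally expressed fusions sorted by FACS into six bins by GFP to DsRed ratio, PSI derived from sequencing read proportions per bin multiplied by bin number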
- experimental_parameters: c terminus: a fixed tail appended
Answer with a bare number; do not write a unit.

Data request: Specify reported protein stability index for the variant shown: "K20R"
Data returned: 2.03

Data request: Specify reported protein stability index for the variant shown: "R23G"
Data returned: 2.62

Data request: Specify reported protein stability index for the variant shown: "S4K"
Data returned: 2.56

Data request: Specify reported protein stability index for the variant shown: "L15E"
Data returned: 2.58

Data request: Specify reported protein stability index for the variant shown: "K11H"
Data returned: 2.49

Data request: Specify reported protein stability index for the variant shown: "T21A"
Data returned: 2.2

Data request: Specify reported protein stability index for the variant shown: "C7M"
Data returned: 4.22

Data request: Specify reported protein stability index for the variant shown: "H8S"
Data returned: 2.3

Data request: Specify reported protein stability index for the variant shown: "L10V"
Data returned: 1.72

Data request: Specify reported protein stability index for the variant shown: "D18I"
Data returned: 2.62

Data request: Specify reported protein stability index for the variant shown: "G12W"
Data returned: 2.01
